# assay-name: qHTS for Inhibitors of human tyrosyl-DNA phosphodiesterase 1 (TDP1): qHTS in cells in absence of CPT; further: nearly all actives have a fitted effect of over 55% in size
# measurement-setup: DT40 Tdp1-/- hTDP1 cells, no CPT, ATP luminescence, 48 h
Out of some 420,000 compounds screened, about 64,000 (15%) were called active. Inconclusive results (about 27%) are left out. The call rests on the fitted dose curve; in most records, active means well fitted inhibition curve with a large enough effect; inconclusive means small, poorly fitted or top-dose-only effect; inactive means flat fitted curve, though single readings scatter. Only a sample is shown.
Classes used: TRUE (active), FALSE (inactive)

>>> group("CC1CN(C(=O)COC(=O)c2cccc(NS(=O)(=O)c3ccccc3)c2)CC(C)O1 (stereo unspecified)")
"FALSE"
>>> group("Oc1ccccc1CNc1ncc(Br)cc1Br")
"FALSE"
>>> group("CONC(=O)c1cc(OCC(F)(F)F)ccc1OCC(F)(F)F")
"FALSE"
>>> group("Cc1noc(C)c1C(=O)NC(C)c1ccc2c(c1)OCO2 (stereo unspecified)")
"FALSE"
>>> group("Cc1c(CN2CCC(n3nccc3NC(=O)CCc3ccccc3)CC2)cnn1C")
"FALSE"
>>> group("CN(C)C(=O)N=NC(=O)N(C)C")
"TRUE"
>>> group("O=S(=O)(Nc1cccc(Oc2ccc(Cl)cc2)n1)c1ccc(F)cc1")
"FALSE"
>>> group("CCCc1cc(=O)[nH]c2nnc(SCC(=O)Nc3nnc(SCC)s3)n12")
"FALSE"
>>> group("CC1(C)CC(=O)C=C(NCCCN2CCCC2=O)C1")
"FALSE"
>>> group("Cc1ccccc1Nc1nc(N)nc(COC(=O)CCC(=O)c2ccc(F)cc2)n1")
"FALSE"
>>> group("CC(=O)c1ccc(NC(=O)CCc2nc(-c3ccc(C)cc3)no2)cc1")
"TRUE"

----------
# assay-name: qHTS for Inhibitors of human tyrosyl-DNA phosphodiesterase 1 (TDP1): qHTS in cells in absence of CPT; further: nearly all actives have a fitted effect of over 55% in size; further: potency means the concentration at half of the fitted maximal effect
# measurement-setup: DT40 Tdp1-/- hTDP1 cells, no CPT, ATP luminescence, 48 h
The whole screen tested about 420,000 compounds, of which about 64,000 (15%) were called active. About 27% were inconclusive and are not listed. A selection follows.
measured-property: Potency

>>> result("COC(=O)C(C)Oc1ccc2c(c1)O/C(=C\\c1cccc(Br)c1)C2=O (stereo unspecified)")
"inactive"
>>> result("C/C=C/C(=O)OCC(=O)Nc1ccc(F)cc1Cl")
"inactive"
>>> result("Cc1ccc(CN(C(=O)c2ccccc2[N+](=O)[O-])c2ccccn2)cc1")
"11.6 µM (active)"
>>> result("COc1ccc(-n2c(CNC(=O)c3cc(C(F)(F)F)ccc3Cl)nnc2SC)cc1")
"inactive"
>>> result("CC1(C)CC(=O)C=C(N2CCCC2)C1")
"inactive"
>>> result("CC(C)(C)C(=O)N(Cc1ccccc1)c1ccccn1")
"inactive"
>>> result("Cc1csc2ncc(C(=O)N(Cc3ccccc3)c3ccccn3)c(=O)n12")
"inactive"
>>> result("COc1cc(CN(C(=O)c2ccccc2Br)c2ccccn2)cc(OC)c1OC")
"13 µM (active)"
>>> result("CC1(C)CC(N2CCN(C(c3ccccc3)c3ccccc3)CC2)=CC(=[N+]2CCCCC2)C1")
"0.164 µM (active)"
>>> result("COC(=O)c1cc(C(=O)N(Cc2ccccc2)c2ccccn2)cc([N+](=O)[O-])c1")
"inactive"
>>> result("CC1CCCN(C(=O)c2cc(-c3ccco3)nc3ccccc23)C1 (stereo unspecified)")
"inactive"

----------
# assay-name: qHTS for Inhibitors of human tyrosyl-DNA phosphodiesterase 1 (TDP1): qHTS in cells in absence of CPT; further: nearly all actives have a fitted effect of over 55% in size
# measurement-setup: DT40 Tdp1-/- hTDP1 cells, no CPT, ATP luminescence, 48 h
In all, about 420,000 compounds went through this assay and about 64,000 (15%) were called active. Inconclusive results (about 27%) are left out. Calls follow the shape of the dose curve; as a rule, active = well fitted inhibition curve with a large enough effect; inconclusive = small, poorly fitted or top-dose-only effect; inactive = flat fitted curve, though single readings scatter. A selection follows.
Classes used: 1 for active, -1 for inactive

>>> group("CC(C)C(=O)Nc1ccc(C(=O)NNC(=O)c2cccs2)cc1")
-1
>>> group("O=c1cc(CSc2ccc(Cl)cc2)nc(N2CCOCC2)[nH]1")
-1
>>> group("O=C(CN(CC1CCCO1)C(=O)CNS(=O)(=O)c1ccccc1)NCc1ccccc1 (stereo unspecified)")
-1
>>> group("COc1cccc(CN2CCNC(=O)C2CC(=O)N(C)CCc2ccccn2)c1 (stereo unspecified)")
-1
>>> group("O=C(O)c1ccc(NC(=O)c2cccs2)cc1")
-1
>>> group("CCCc1nnc(NC(=O)c2cccs2)s1")
-1
>>> group("CC(C)NC(=O)COCc1cc(-c2ccc3c(c2)OCO3)on1")
-1
>>> group("O=C(O)COc1nsnc1N1CCOCC1")
-1
>>> group("CC(C)(C)c1ccc(C(=O)Nc2ccc3c(c2)CCCN3C(=O)c2cccs2)cc1")
1
>>> group("O=C(c1cccnc1)N(Cc1ccccc1)C(=O)c1cccnc1")
-1
>>> group("O=C(C1CCN(S(=O)(=O)c2cnc[nH]2)CC1)N1CCN(Cc2ccc3c(c2)OCO3)CC1")
1

----------
# assay-name: qHTS for Inhibitors of human tyrosyl-DNA phosphodiesterase 1 (TDP1): qHTS in cells in absence of CPT; further: nearly all actives have a fitted effect of over 55% in size
# measurement-setup: DT40 Tdp1-/- hTDP1 cells, no CPT, ATP luminescence, 48 h
Among all 420,000 compounds or so, about 64,000 (15%) were called active. About 27% were inconclusive and are not listed. The call rests on the fitted dose curve; in most records, active means well fitted inhibition curve with a large enough effect; inconclusive means small, poorly fitted or top-dose-only effect; inactive means flat fitted curve, though single readings scatter. A selection follows.
Classes used: active, inactive

>>> group("CCCCC(c1nnnn1CS(=O)(=O)c1ccc(C)cc1)N1CCC(C(N)=O)CC1 (stereo not drawn)")
"inactive"
>>> group("CCOc1ccc(N=C2NC(=O)S/C2=C\\c2ccc(O)cc2)cc1")
"inactive"
>>> group("CCOc1[nH]n(-c2ccc(Cl)cc2)c(=O)c1C=Nc1ccc(O)cc1")
"active"
>>> group("CCOC(=O)C1=CC[C@@H](c2ccccc2)N(S(=O)(=O)c2ccc(C)cc2)[C@H]1c1ccc(CC)cc1")
"active"
>>> group("Cc1ccc(S(=O)(=O)N2[C@@H](c3ccc(Br)cc3)C(C(=O)O)=C[C@H]2CC2CCCC2)cc1")
"inactive"
>>> group("CCc1ccc([C@@H]2CC(=O)[C@@H]3CN(S(=O)(=O)c4ccc(C)cc4)[C@H](c4ccc(Cl)cc4)C[C@@H]3N2S(=O)(=O)c2ccc(C)cc2)cc1")
"inactive"
>>> group("CCOC1=C2[C@H]([C@H]3C(=O)N(c4ccccc4)C(=O)[C@H]3C1)[C@@H](c1ccccc1)N(S(=O)(=O)c1ccc(C)cc1)[C@H]2c1ccccc1")
"inactive"
>>> group("C/C(Cn1nnc2ccccc21)=N\\OC(=O)c1cc(F)c(F)cc1Cl")
"inactive"

----------
# assay-name: qHTS for Inhibitors of human tyrosyl-DNA phosphodiesterase 1 (TDP1): qHTS in cells in absence of CPT; further: nearly all actives have a fitted effect of over 55% in size
# measurement-setup: DT40 Tdp1-/- hTDP1 cells, no CPT, ATP luminescence, 48 h
About 64,000 (15%) of roughly 420,000 compounds were called active. Another 27% or so got no clear call; they are omitted. Calls come from the whole dose curve; as a rule, active = well fitted inhibition curve with a large enough effect; inconclusive = small, poorly fitted or top-dose-only effect; inactive = flat fitted curve, though single readings scatter. These entries were drawn from the full list.
Classes used: True (active), False (inactive)

>>> group("CCC(=O)NCCc1nc2ccccc2n1CC")
"False"
>>> group("Cc1cc(C)cc(OCC(=O)OCC(=O)NC2CCCC2)c1")
"False"
>>> group("CCCCOCCCNC(=O)c1ccccc1OCC")
"False"
>>> group("O=S(=O)(c1ccccc1)N1CCC2(CC1)CN(Cc1nccs1)C2")
"False"
>>> group("CCOc1ccc(CN(Cc2ccco2)S(=O)(=O)c2ccc(-n3cnnn3)c(OC)c2)cc1")
"True"
>>> group("C=C1O[C@@](CO)(n2cnc3c(N)ncnc32)[C@H](O)[C@@H]1O")
"False"
>>> group("CCOc1ccc(S(=O)(=O)N(CC(=O)NCC(F)(F)F)Cc2ccco2)cc1")
"False"
>>> group("CC(=O)NCCc1nc2cc(NC(=O)c3ccccc3)ccc2n1C")
"False"
>>> group("CCOC(=O)c1cc(-c2nnc(-c3cc(OC)c(OC)c(OC)c3)o2)c(C)nc1C")
"True"
>>> group("Cc1oc(-c2cccc(NC(=O)c3ccccc3)c2)nc1CNC(=O)c1cnc2ccccn2c1=O")
"False"
>>> group("CCc1cc(-c2nnn(CCC3COCCO3)c2CC)ccc1-c1cn(Cc2ccc3ccccc3c2)nn1 (stereo not drawn)")
"True"
>>> group("CCOc1ccc(S(=O)(=O)Nc2nc3cc(OC)ccc3s2)cc1")
"False"
>>> group("O=C(CN1CCOCC1)Nc1c2c(nc3c1CCC3)CCC2")
"False"
>>> group("CN(C(=O)CSc1nnnn1-c1ccccc1)C1CCCCC1")
"False"
>>> group("CCOc1ccc(C(=O)COC(=O)c2ccc(-n3cnnn3)cc2)cc1")
"False"
>>> group("CCCCSc1ncnc2c1sc1nc(N3CCOCC3)c3c(c12)CCCC3")
"False"
>>> group("O=C(NC1CCN(Cc2ccccc2)CC1)c1cc(Br)c(Br)[nH]1")
"True"
>>> group("CC(=O)NCc1ccc(S(=O)(=O)NC2CCN(Cc3ccccc3)CC2)cc1")
"False"
>>> group("Cc1cc2c(cc3c(SCc4nc(-c5ccccc5)oc4C)nnc(C)n32)o1")
"True"
>>> group("Cc1cc(NC(=O)CSCc2nc(-c3cccc(Cl)c3)oc2C)no1")
"False"
>>> group("N/C(=N\\OC(=O)/C=C/c1ccccc1)c1ccc(Br)cc1")
"False"
>>> group("COc1ccc(O)c(/C=N/N=C/c2cccc([N+](=O)[O-])c2)c1")
"False"
>>> group("CCOC(=O)c1cc2ccccc2nc1C")
"False"

Origin of values: PubChem BioAssay AID686978
